solubility overview
Assay: Solubility of the compound in water at pH 7.4
Type: physicochemical
reported.property: solubility (µg/mL)

[[record]]
compound = "Clc1ccc(C(Cl)Cn2ncc3c(NCc4ccncc4)ncnc32)cc1 (stereo not drawn)"
limit_operator = "="
value_observed = 12.3

[[record]]
compound = "Clc1cccc(Nc2nc(SCCN3CCOCC3)nc3c2cnn3CC(Cl)c2ccccc2)c1 (stereo not drawn)"
limit_operator = "="
value_observed = 0.1

[[record]]
compound = "CC(Cn1ncc2c(Nc3cccc(Cl)c3)ncnc21)c1ccccc1 (stereo not drawn)"
limit_operator = "<"
value_observed = 0.04

[[record]]
compound = "Clc1cccc(Nc2nc(N3CCOCC3)nc3c2cnn3CC(Cl)c2ccccc2)c1 (stereo not drawn)"
limit_operator = "="
value_observed = 0.13

[[record]]
compound = "OCCNc1nc(NCCc2ccccc2)c2cnn(/C=C\\c3ccccc3)c2n1"
limit_operator = "="
value_observed = 0.4

[[record]]
compound = "Fc1ccc(CNc2ncnc3c2cnn3CC(Cl)c2ccc(Cl)cc2)cc1 (stereo not drawn)"
limit_operator = "<"
value_observed = 0.04

[[record]]
compound = "Fc1ccc(CNc2ncnc3c2cnn3CC(Cl)c2ccc(F)cc2)cc1 (stereo not drawn)"
limit_operator = "<"
value_observed = 0.04

[[record]]
compound = "ClC(Cn1ncc2c(NCc3ccccc3)nc(SCCN3CCOCC3)nc21)c1ccccc1 (stereo not drawn)"
limit_operator = "="
value_observed = 1.2


* * *

Test: Metabolic stability in human liver microsomes assessed as parent compound remaining after 60 mins by LC-MS analysis
Assay type: ADME, Microsome
Settings: read-out: Stability
remaining at 1 h overview
reported.property: remaining at 1 h (%)

[[record]]
compound = "Clc1cccc(Nc2nc(SCCN3CCOCC3)nc3c2cnn3CC(Cl)c2ccccc2)c1 (stereo not drawn)"
units_symbol = "%"
value_observed = 95

[[record]]
compound = "CC(Cn1ncc2c(Nc3cccc(Cl)c3)ncnc21)c1ccccc1 (stereo not drawn)"
units_symbol = "%"
value_observed = 75

[[record]]
compound = "Clc1ccc(C(Cl)Cn2ncc3c(NCc4ccncc4)ncnc32)cc1 (stereo not drawn)"
units_symbol = "%"
value_observed = 90

[[record]]
compound = "ClC(Cn1ncc2c(NCc3ccccc3)nc(SCCN3CCOCC3)nc21)c1ccccc1 (stereo not drawn)"
units_symbol = "%"
value_observed = 95

[[record]]
compound = "Fc1ccc(CNc2ncnc3c2cnn3CC(Cl)c2ccc(F)cc2)cc1 (stereo not drawn)"
units_symbol = "%"
value_observed = 82

[[record]]
compound = "OCCNc1nc(NCCc2ccccc2)c2cnn(/C=C\\c3ccccc3)c2n1"
units_symbol = "%"
value_observed = 84

[[record]]
compound = "Clc1cccc(Nc2nc(N3CCOCC3)nc3c2cnn3CC(Cl)c2ccccc2)c1 (stereo not drawn)"
units_symbol = "%"
value_observed = 90

[[record]]
compound = "Fc1ccc(CNc2ncnc3c2cnn3CC(Cl)c2ccc(Cl)cc2)cc1 (stereo not drawn)"
units_symbol = "%"
value_observed = 94


* * *

Tested on: MEG-01
Test: cells
Conditions: Homo sapiens, MEG-01, 72 h
Description: Antiproliferative activity against human MEG01 cells under hypoxic condition after 72 hrs by using CyQUANT GR dye
Rule for this label: met means IC50 is less than 20 µM; not met means IC50 is at least 20 µM.

[[record]]
molecule = "OCCNc1nc(NCCc2ccccc2)c2cnn(/C=C\\c3ccccc3)c2n1"
category = "not met"

[[record]]
molecule = "Fc1ccc(CNc2ncnc3c2cnn3CC(Cl)c2ccc(Cl)cc2)cc1 (stereo not given)"
category = "met"

[[record]]
molecule = "Clc1ccc(C(Cl)Cn2ncc3c(NCc4ccncc4)ncnc32)cc1 (stereo not given)"
category = "not met"

[[record]]
molecule = "Clc1cccc(Nc2nc(N3CCOCC3)nc3c2cnn3CC(Cl)c2ccccc2)c1 (stereo not given)"
category = "met"

